- measurement target: T1, recombinant soluble human CEA (extracellular domain, AA 1-687 of huCEA, C-terminal 6xHis) (human, UniProt P06731 35-687)
- T1 construct: also called sCEA; soluble CEA
- T1 sequence: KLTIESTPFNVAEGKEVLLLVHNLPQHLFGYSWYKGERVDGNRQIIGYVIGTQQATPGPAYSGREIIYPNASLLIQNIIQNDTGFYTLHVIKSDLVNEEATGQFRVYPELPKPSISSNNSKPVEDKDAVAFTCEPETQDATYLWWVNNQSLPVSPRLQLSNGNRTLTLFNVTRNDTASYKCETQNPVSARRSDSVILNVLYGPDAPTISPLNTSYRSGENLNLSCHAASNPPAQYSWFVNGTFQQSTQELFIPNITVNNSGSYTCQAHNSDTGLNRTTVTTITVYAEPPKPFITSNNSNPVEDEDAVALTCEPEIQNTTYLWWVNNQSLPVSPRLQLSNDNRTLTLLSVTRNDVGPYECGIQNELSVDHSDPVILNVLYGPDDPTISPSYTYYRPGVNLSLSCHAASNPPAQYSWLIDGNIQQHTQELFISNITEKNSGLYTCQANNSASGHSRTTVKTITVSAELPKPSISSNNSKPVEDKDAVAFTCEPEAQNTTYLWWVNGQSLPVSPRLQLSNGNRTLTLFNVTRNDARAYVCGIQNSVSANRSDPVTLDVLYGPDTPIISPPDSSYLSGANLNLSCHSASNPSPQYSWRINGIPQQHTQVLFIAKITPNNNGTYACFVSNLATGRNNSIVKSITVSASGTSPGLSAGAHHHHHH
- method notes: SPR; kinetics on huCEA, IgG format
Assign Kd to each entry below.
Give bare numbers, in nM.

binder="BGA6710 variant Q54E, Y57E (antibody, V domains shown, IgG format; both changes in the heavy chain) VH: QVQLVQSGAEVKKPGASVKVSCKASGYIFTSYYLHWVRQAPGQGLEWIGYINPETGETSYAQKFQGRVTMTRDTSTSTVYMELSSLRSEDTAVYYCAREYGNYNYPLDYWGQGTLVTVSS VL: DIQMTQSPSSLSASVGDRVTITCRASENQYGYLAWYQQKPGKVPKLLIYNYKNLVEGVPSRFSGSGSGTDFTLTISSLQPEDVATYYCQHHLGTPYTFGQGTKVEIK" unit_descriptor=nM val=2.14

Hi there! I need Kd for each item below, if you can.
1. BGA6710 variant K13E, Y57K (antibody, V domains shown, IgG format; both changes in the heavy chain) VH: QVQLVQSGAEVKEPGASVKVSCKASGYIFTSYYLHWVRQAPGQGLEWIGYINPQTGKTSYAQKFQGRVTMTRDTSTSTVYMELSSLRSEDTAVYYCAREYGNYNYPLDYWGQGTLVTVSS VL: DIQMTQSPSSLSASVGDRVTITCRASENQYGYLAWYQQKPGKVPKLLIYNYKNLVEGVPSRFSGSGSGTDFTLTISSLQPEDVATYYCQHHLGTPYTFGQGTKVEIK
2. BGA6710 variant L92E (antibody, V domains shown, IgG format; L92E in the light chain) VH: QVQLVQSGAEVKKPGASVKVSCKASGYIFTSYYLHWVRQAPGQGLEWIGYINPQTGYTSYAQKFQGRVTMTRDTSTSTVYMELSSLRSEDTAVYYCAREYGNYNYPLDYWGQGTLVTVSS VL: DIQMTQSPSSLSASVGDRVTITCRASENQYGYLAWYQQKPGKVPKLLIYNYKNLVEGVPSRFSGSGSGTDFTLTISSLQPEDVATYYCQHHEGTPYTFGQGTKVEIK
3. BGA6710 variant Y57D (antibody, V domains shown, IgG format; change in the heavy chain) VH: QVQLVQSGAEVKKPGASVKVSCKASGYIFTSYYLHWVRQAPGQGLEWIGYINPQTGDTSYAQKFQGRVTMTRDTSTSTVYMELSSLRSEDTAVYYCAREYGNYNYPLDYWGQGTLVTVSS VL: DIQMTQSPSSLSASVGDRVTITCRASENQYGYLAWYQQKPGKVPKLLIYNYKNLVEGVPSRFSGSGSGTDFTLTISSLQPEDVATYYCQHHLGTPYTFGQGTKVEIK
4. BGA6710 variant L92E, Y57K (antibody, V domains shown, IgG format) VH: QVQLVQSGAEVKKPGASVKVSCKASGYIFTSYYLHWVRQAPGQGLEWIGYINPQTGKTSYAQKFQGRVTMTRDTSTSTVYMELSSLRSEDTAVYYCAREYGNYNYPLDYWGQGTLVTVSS VL: DIQMTQSPSSLSASVGDRVTITCRASENQYGYLAWYQQKPGKVPKLLIYNYKNLVEGVPSRFSGSGSGTDFTLTISSLQPEDVATYYCQHHEGTPYTFGQGTKVEIK

OUT:
1.34
4.5
1.82
5.29

Measured values drawn from patent US20250115677A1 for this set.
